- System: human AT1 receptor (Homo sapiens)
- Construct: expressed in transfected cells; membrane fraction
- Sequence (P30556 1-359): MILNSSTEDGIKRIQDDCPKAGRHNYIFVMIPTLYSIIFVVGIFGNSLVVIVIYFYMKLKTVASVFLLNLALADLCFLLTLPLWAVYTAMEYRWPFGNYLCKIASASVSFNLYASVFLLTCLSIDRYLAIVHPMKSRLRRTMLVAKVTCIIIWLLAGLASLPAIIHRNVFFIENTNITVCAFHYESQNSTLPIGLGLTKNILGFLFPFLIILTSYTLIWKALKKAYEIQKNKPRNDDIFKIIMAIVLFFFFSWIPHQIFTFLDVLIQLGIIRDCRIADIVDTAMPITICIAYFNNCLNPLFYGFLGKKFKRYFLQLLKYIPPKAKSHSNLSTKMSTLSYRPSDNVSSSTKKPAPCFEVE
- Protocol Details: AT1 receptor antagonistic activity: [125I]-angiotensin II binding assay on human AT1 receptor-expressing CHO-K1 cellular membrane fraction
- Experimental Conditions: 22.5 pM [125I]-angiotensin II, 1 hr room temperature

{"Compound": "CCCc1c(Cc2ccc(-c3ccccc3-c3noc(=O)[nH]3)cc2)c(=O)n([C@H]2CC[C@H](OCC(O)(CC)CC)CC2)c2ncnn12", "IC50 [nM]": 2.3}
{"Compound": "CCCc1c(Cc2ccc(-c3ccccc3-c3noc(=O)[nH]3)cc2)c(=O)n([C@H]2CC[C@H](OCC(C)(O)CC)CC2)c2ncnn12 (stereo partly shown)", "IC50 [nM]": 2.1}
{"Compound": "CCCCc1c(Cc2ccc(-c3ccccc3-c3noc(=O)[nH]3)cc2)c(=O)n([C@H]2CC[C@H](OCC(C)(C)O)CC2)c2ccnn12", "IC50 [nM]": 2.1}
{"Compound": "CCCc1c(Cc2ccc(-c3ccccc3-c3noc(=O)[nH]3)cc2)c(=O)n([C@H]2CC[C@H](OC(C)C(C)(C)O)CC2)c2ncnn12 (single isomer, unassigned) [Example 319]", "IC50 [nM]": 2}

---

- System: human AT1 receptor (Homo sapiens, UniProt P30556)
- Construct: expressed in transfected cells; membrane fraction
- Protocol Details: AT1 receptor antagonistic activity: [125I]-angiotensin II binding assay on human AT1 receptor-expressing CHO-K1 cellular membrane fraction
- Experimental Conditions: 22.5 pM [125I]-angiotensin II, 1 hr room temperature
Below is a list of entries, each paired with its recorded IC50 value.

{"Molecule": "CCCc1c(Cc2ccc(-c3ccccc3-c3noc(=O)[nH]3)cc2F)c(=O)n([C@H]2CC[C@H](OC(C)C(O)(CF)CF)CC2)c2ncnn12 (stereo partly shown)", "Unit Label": "nM", "IC50": 2.8}
{"Molecule": "CCCc1c(Cc2ccc(-c3ccccc3-c3noc(=O)[nH]3)cc2)c(=O)n(Cc2ccc(F)cc2)c2ncnn12", "Unit Label": "nM", "IC50": 2.6}
{"Molecule": "CCCc1c(Cc2ccc(-c3ccccc3-c3noc(=O)[nH]3)cc2)c(=O)n([C@H]2CC[C@H](OCC(C)=O)CC2)c2ncnn12", "Unit Label": "nM", "IC50": 1.9}
{"Molecule": "CCCc1c(Cc2ccc(-c3ccccc3-c3noc(=O)[nH]3)cc2)c(=O)n([C@H]2CC[C@H](OCC(O)(CC)CC)CC2)c2nc(C)nn12", "Unit Label": "nM", "IC50": 2}
{"Molecule": "CCCc1c(Cc2ccc(-c3ccccc3-c3noc(=O)[nH]3)cc2)c(=O)n([C@H]2CC[C@H](OCC(C)O)CC2)c2ncnn12 (stereo partly shown)", "Unit Label": "nM", "IC50": 2.2}
{"Molecule": "CCCc1c(Cc2ccc(-c3ccccc3-c3noc(=O)[nH]3)cc2)c(=O)n([C@H]2CC[C@H](OCC(O)CC)CC2)c2ncnn12 (stereo partly shown)", "Unit Label": "nM", "IC50": 1.8}
{"Molecule": "CCCc1c(Cc2ccc(-c3ccccc3-c3noc(=O)[nH]3)cc2)c(=O)n(C2CCC(=NOC3CCOCC3)CC2)c2ncnn12 (stereo not shown)", "Unit Label": "nM", "IC50": 2.5}
{"Molecule": "CCCc1c(Cc2ccc(-c3ccccc3-c3noc(=O)[nH]3)cc2F)c(=O)n(Cc2ccc(OC)cc2OC)c2ncnn12", "Unit Label": "nM", "IC50": 2.5}
{"Molecule": "CCCc1c(Cc2ccc(-c3ccccc3-c3noc(=O)[nH]3)cc2F)c(=O)n(C2CCSCC2)c2nc(C)nn12", "Unit Label": "nM", "IC50": 1.5}
{"Molecule": "CCCc1c(Cc2ccc(-c3ccccc3-c3noc(=O)[nH]3)cc2)c(=O)n(C2CCC2)c2nc(C)nn12", "Unit Label": "nM", "IC50": 1.5}
{"Molecule": "CCCc1c(Cc2ccc(-c3ccccc3-c3noc(=O)[nH]3)cc2F)c(=O)n([C@H]2CC[C@H](OCC(C)O)CC2)c2ccnn12 (relative stereo)", "Unit Label": "nM", "IC50": 1.6}
{"Molecule": "CCCc1c(Cc2ccc(-c3ccccc3-c3noc(=O)[nH]3)cc2F)c(=O)n([C@H]2CC[C@H](OCC(C)(C)O)CC2)c2nc(C)nn12", "Unit Label": "nM", "IC50": 1.7}
{"Molecule": "CCCc1c(Cc2ccc(-c3ccccc3-c3noc(=O)[nH]3)cc2)c(=O)n([C@H]2CC[C@@H](OCCO)CC2)c2ncnn12", "Unit Label": "nM", "IC50": 1.6}

---

- System: human PPARγ (Homo sapiens)
- Construct: expressed in transfected cells
- Sequence (P37231 29-505): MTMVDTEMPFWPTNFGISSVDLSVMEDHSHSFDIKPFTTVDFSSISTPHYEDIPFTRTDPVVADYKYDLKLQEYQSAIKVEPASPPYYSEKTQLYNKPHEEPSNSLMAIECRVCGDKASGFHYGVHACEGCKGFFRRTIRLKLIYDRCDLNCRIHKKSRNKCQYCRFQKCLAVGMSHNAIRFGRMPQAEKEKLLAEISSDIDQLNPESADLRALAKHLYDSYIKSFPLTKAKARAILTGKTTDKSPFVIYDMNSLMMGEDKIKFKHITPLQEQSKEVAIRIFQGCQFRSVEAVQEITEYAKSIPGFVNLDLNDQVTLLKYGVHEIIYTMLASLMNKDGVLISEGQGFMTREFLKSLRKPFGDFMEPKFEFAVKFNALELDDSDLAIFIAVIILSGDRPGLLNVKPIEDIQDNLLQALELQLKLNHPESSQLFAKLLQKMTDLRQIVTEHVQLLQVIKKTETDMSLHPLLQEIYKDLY
- Sequence (P19793 whole entry partner): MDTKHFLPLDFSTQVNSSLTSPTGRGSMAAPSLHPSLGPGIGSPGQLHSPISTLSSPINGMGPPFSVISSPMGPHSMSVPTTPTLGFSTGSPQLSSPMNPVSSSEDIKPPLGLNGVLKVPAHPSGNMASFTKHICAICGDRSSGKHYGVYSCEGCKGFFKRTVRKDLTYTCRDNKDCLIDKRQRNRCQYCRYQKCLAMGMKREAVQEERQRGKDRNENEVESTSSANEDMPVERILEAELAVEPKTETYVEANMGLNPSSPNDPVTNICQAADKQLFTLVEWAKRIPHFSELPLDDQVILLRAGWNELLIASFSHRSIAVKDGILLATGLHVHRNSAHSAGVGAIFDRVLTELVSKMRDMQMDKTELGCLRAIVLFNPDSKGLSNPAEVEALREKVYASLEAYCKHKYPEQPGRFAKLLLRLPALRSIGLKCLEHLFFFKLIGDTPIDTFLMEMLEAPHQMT
- Protocol Details: PPARγ agonistic activity: luciferase reporter assay in PPARγ:RXRα:4ERPP/CHO-K1 cells
- Type: cell-based
- Experimental Conditions: CHO-K1, test compound 10^−6 M; luciferase activity of control compound X (1 μM) = 100%, non-administration group = 0%
Below is a list of entries, each paired with its recorded activation at 1 µM value.
Property Measured: activation at 1 µM (%)

{"Compound": "CCCc1c(Cc2ccc(-c3ccccc3-c3noc(=O)[nH]3)cc2)c(=O)n([C@H]2CC[C@H](OC(C)C(C)O)CC2)c2ncnn12 (some centres unmarked) [Example 299]", "System": "human PPARγ (Homo sapiens)", "Property Measured": "activation at 1 µM", "Measured": 19}
{"Compound": "CCCc1c(Cc2ccc(-c3ccccc3-c3noc(=O)[nH]3)cc2F)c(=O)n([C@H]2CC[C@](C)(OCC(C)(C)O)CC2)c2nc(C)nn12 [Example 368]", "System": "human PPARγ (Homo sapiens)", "Property Measured": "activation at 1 µM", "Measured": 19}
{"Compound": "CCCc1c(Cc2ccc(-c3ccccc3-c3noc(=O)[nH]3)cc2)c(=O)n(CCC)c2ncnn12 [Example 29]", "System": "human PPARγ (Homo sapiens)", "Property Measured": "activation at 1 µM", "Measured": 16}
{"Compound": "CCCc1c(Cc2ccc(-c3ccccc3-c3noc(=O)[nH]3)cc2)c(=O)n(C2C=CCCC2)c2nc(C)nn12 (centres unmarked) [Example 74]", "System": "human PPARγ (Homo sapiens)", "Property Measured": "activation at 1 µM", "Measured": 25}
{"Compound": "CCCc1c(Cc2ccc(-c3ccccc3-c3noc(=O)[nH]3)cc2)c(=O)n([C@H]2CC[C@H](OCCCO)CC2)c2ncnn12 [Example 186]", "System": "human PPARγ (Homo sapiens)", "Property Measured": "activation at 1 µM", "Measured": 24}
